# test-system: T1, human MASP-2cf CCP1-CCP2-SP (human, UniProt O00187 298-686, limits assumed)
# T1 construct: domain: CCP1-CCP2-SP; also called human MASP-2 catalytic fragment
# T1 sequence (O00187 298-686 limits assumed): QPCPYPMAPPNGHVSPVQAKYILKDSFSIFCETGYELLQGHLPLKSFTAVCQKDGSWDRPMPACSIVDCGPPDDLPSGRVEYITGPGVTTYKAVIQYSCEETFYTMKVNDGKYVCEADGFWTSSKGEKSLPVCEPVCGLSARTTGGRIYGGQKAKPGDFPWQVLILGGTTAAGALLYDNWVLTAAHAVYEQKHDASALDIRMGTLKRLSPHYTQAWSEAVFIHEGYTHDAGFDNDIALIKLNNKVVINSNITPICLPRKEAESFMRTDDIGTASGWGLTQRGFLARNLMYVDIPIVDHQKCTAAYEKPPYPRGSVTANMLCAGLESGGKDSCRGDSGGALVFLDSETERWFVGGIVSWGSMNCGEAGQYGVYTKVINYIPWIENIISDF
# assay: SPR, target immobilised
Where no end group is shown, it is not given here.
Here the recorded Relative affinity is given for each entry.
Write down the numeric answer in fold vs EVO2 and omit the unit.

Lookup: Any idea what its Relative affinity is? The binder is EVO216 (designed binder, not fully specified; cysteine pairing not given here, Modified TFPI-D2 Kunitz domain; made as m1) KPDFCFLENDPGWCRAAKLRYFYNNQTKQCERFGYGGCLGNMNNFVTLEECKNICEDG
Found: 2.4

Lookup: Any idea what its Relative affinity is? The binder is EVO223 (designed binder, Modified TFPI-D2 Kunitz domain; made as m1) KPDFCFLENDPGPCRAAAVRYFYNNQTKQCERFYYGGCLGNMNNFVTLEECKNICEDG
Found: 33.1

Lookup: Any idea what its Relative affinity is? The binder is EVO21a (designed binder, not fully specified; cysteine pairing not given here, Modified TFPI-D2 Kunitz domain; made as m1) KPDFCFLENDPGPCRAVKRRYFYNNQTKQCERFGYGGCLGNMNNFVTLEECKNICEDG
Found: 2.5

Lookup: Any idea what its Relative affinity is? The binder is EVO2b (designed binder, not fully specified; cysteine pairing not given here, Modified TFPI-D2 Kunitz domain; made as m1) KPDFCFLEEDPGPCRAVKRRYFYNNQTKQCERFGYGGCLGNMNNFETLEECKNICEDG
Found: 0.9

// provenance: patent US20260098080A1
